- assayed_target: CGRP receptor (SK-N-MC cell membranes) (Homo sapiens, UniProt O60894+Q16602)
- Construct: endogenous in cells; host or cells: SK-N-MC cells (membrane homogenate)
- Sequence (Q16602 23-461): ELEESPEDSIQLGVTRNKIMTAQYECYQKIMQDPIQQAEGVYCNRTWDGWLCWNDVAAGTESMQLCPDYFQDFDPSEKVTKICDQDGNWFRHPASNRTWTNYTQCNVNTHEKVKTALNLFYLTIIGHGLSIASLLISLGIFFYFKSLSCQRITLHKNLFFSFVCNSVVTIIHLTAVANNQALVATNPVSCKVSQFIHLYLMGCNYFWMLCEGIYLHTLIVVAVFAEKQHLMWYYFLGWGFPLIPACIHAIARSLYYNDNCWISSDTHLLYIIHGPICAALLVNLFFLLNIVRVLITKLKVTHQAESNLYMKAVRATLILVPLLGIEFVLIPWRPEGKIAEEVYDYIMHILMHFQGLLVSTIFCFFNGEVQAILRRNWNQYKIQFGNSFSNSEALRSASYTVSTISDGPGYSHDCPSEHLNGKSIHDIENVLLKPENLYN
- Sequence (O60894 27-148): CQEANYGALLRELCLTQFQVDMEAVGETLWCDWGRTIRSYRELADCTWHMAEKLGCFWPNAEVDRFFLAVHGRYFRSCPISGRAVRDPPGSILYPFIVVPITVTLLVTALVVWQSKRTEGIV
- test_name: CGRP Binding Assay ([125I]-CGRP radioligand binding, SK-N-MC homogenate)
- study_conditions: displacement of [125I]-CGRP, SK-N-MC homogenate; read-out: CGRP binding IC50
Listing: IC50 of selected compounds

// worked examples, IC50 included
{"columns": ["compound", "assayed_target", "IC50"],
 "data": [
  ["CCOC(=O)C(C)NC(=O)N[C@@H](CC(=O)N1CCC(N2Cc3ccccc3NC2=O)CC1)C(=O)N1CCC(N2CCCCC2)CC1 (stereo partly drawn)", "CGRP receptor (SK-N-MC cell membranes) (Homo sapiens, UniProt O60894+Q16602)", "100 to 1000 nM"],
  ["Cc1cc(CC(NC(=O)N2CCC3(CC2)CC(=O)Nc2ccccc23)C(=O)N(C)C)cc2cn[nH]c12 (racemic)", "CGRP receptor (SK-N-MC cell membranes) (Homo sapiens, UniProt O60894+Q16602)", "100 to 1000 nM"],
  ["Cc1cc(CC(NC(=O)N2CCC3(CC2)OC(=O)Nc2ccccc23)C(=O)N2CCCCC2)cc2cn[nH]c12 (racemic)", "CGRP receptor (SK-N-MC cell membranes) (Homo sapiens, UniProt O60894+Q16602)", "10 to 100 nM"],
  ["CC(NC(=O)N[C@@H](CC(=O)N1CCC(N2Cc3ccccc3NC2=O)CC1)C(=O)N1CCC(N2CCCCC2)CC1)c1cccc2ccccc12 (stereo partly drawn)", "CGRP receptor (SK-N-MC cell membranes) (Homo sapiens, UniProt O60894+Q16602)", "10 to 100 nM"],
  ["O=C(N[C@@H](CC(=O)N1CCC(N2Cc3ccccc3NC2=O)CC1)C(=O)N1CCC(N2CCCCC2)CC1)c1cccc(Cl)c1", "CGRP receptor (SK-N-MC cell membranes) (Homo sapiens, UniProt O60894+Q16602)", "100 to 1000 nM"]
]}

Switching to the query record.
Task: Which IC50 value is on record for O=C(Nc1ccccc1OC(F)(F)F)N[C@@H](CC(=O)N1CCC(N2Cc3ccccc3NC2=O)CC1)C(=O)N1CCC(N2CCCCC2)CC1 ?
Output: 10 to 100 nM

Where do these numbers come from? They come from patent US7842808B2.
